- measurement description: Components of the Cytosolic LPS Sensing Pathway: Gene Identification via Genome-wide siRNA Screen
- test settings: RAW264.7 macrophages, IL-1a HTRF, actives lie on both sides, screened at 100 nM (by protocol), cells primed 5 h with Pam3CSK4 first
Out of some 53,000 sequences screened, about 3,700 (7%) were called active.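 The calls were made as follows: active = gene knockdowns whose robust z-score for IL-1 alpha signal is at least 2 or at most -2, so actives lie on both sides; inactive = the rest.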 Many of the other results were omitted from the sample, so actives are more common in it than they were.
Reply using exactly one outcome from active, inactive

Solved cases (6 shown):
CCCUGUACCUAGCUCAAGATT against Ecel1	inactive
GGAAGCCUACCUUUAUAUUTT against Slc2a3	inactive
GCCACUACUAAUAGCAUGUTT against 5330438I03Rik	inactive
GGGUUCCAGUUUGUUUCCUTT against Cnbp	inactive
GGUGCAGGCCAUGAUUUACTT against C1qtnf4	active
GGUAUAAGUUGGCAAGAUCTT against Cry2	inactive

# evaluate next
# input Hi team, can someone confirm the assay call for GGCGAAAGUGCUUUUCCUGTT against Gbp8 ?
# output inactive
